Source listed as patent US8426408B2.

- System name: Aurora B (Homo sapiens)
- Construct: Active Aurora B enzyme (recombinant residues 1-344)
- Sequence (Q96GD4 whole entry, the tested form may be a part): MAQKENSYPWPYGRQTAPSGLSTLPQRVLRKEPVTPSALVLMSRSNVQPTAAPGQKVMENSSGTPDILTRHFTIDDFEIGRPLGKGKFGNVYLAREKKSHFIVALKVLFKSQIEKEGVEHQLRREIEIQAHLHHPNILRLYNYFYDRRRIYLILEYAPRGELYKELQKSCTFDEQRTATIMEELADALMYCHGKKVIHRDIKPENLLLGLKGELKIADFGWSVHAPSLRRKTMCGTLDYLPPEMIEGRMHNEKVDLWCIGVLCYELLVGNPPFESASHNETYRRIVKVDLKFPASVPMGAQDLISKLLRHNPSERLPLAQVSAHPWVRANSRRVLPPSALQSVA
- Sequence (Q9NQS7 826-918 partner limits assumed): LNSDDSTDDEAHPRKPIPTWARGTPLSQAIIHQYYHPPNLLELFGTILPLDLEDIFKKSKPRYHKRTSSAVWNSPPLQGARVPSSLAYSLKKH
- Assay notes: Aurora B enzyme inhibition (time-resolved fluorescence, histone H3 peptide)
- Protocol conditions: 1 mM ATP
pKi: −log10 of the molar value.
Readout kind: pKi

[
  {
    "Compound": "CC(O)Cn1cc(Nc2ncc(C(F)(F)F)c(NC3C4C=CC(C4)C3C(N)=O)n2)cn1 (mixture of isomers)",
    "pKi": "> 7.00"
  },
  {
    "Compound": "CCn1cc(Nc2ncc(Cl)c(NC3C4CCC(O4)C3C(N)=O)n2)cn1 (racemic)",
    "pKi": "> 7.00"
  },
  {
    "Compound": "NC(=O)Cn1cc(Nc2ncc(Cl)c(N[C@H]3[C@@H](C(N)=O)[C@@H]4C=C[C@H]3C4)n2)cn1",
    "pKi": "> 7.00"
  },
  {
    "Compound": "CC(C)NC(=O)[C@H]1CCC[C@H]1Nc1nc(Nc2cnn(CCN3CCOCC3)c2)ncc1Cl",
    "pKi": "> 7.00"
  },
  {
    "Compound": "CCn1cc(Nc2ncc(Br)c(N[C@H]3[C@@H](C(N)=O)[C@@H]4C=C[C@H]3C4)n2)cn1",
    "pKi": "> 7.00"
  },
  {
    "Compound": "CCn1cc(Nc2ncc(OC)c(NC3C4C=CC(C4)C3C(N)=O)n2)cn1 (mixture of isomers)",
    "pKi": "> 7.00"
  },
  {
    "Compound": "CN(C)C(=O)Cn1cc(Nc2ncc(Cl)c(N[C@@H]3[C@H]4CC[C@H](C4)[C@@H]3C(N)=O)n2)cn1.CN(C)C(=O)Cn1cc(Nc2ncc(Cl)c(N[C@H]3[C@@H]4CC[C@@H](C4)[C@H]3C(N)=O)n2)cn1 (mixture of isomers)",
    "pKi": "> 7.00"
  },
  {
    "Compound": "NC(=O)[C@@H]1[C@H](Nc2nc(Nc3cnn([C@@H]4CCCNC4)c3)ncc2Cl)[C@H]2C=C[C@@H]1C2",
    "pKi": "> 7.00"
  }
]

Lab note: measured pKi of NC(=O)[C@@H]1[C@H](Nc2nc(Nc3cnn(Cc4ccc(Cl)cc4)c3)ncc2Br)[C@H]2C=C[C@@H]1C2 was > 7.00

Lab note: measured pKi of Cn1cc(Nc2ncc(Br)c(Nc3ccccc3C3(O)CCC3)n2)cn1 was > 7.00

Lab note: measured pKi of NC(=O)[C@@H]1[C@H](Nc2nc(Nc3cnn(Cc4ccccc4)c3)ncc2Cl)[C@H]2C=C[C@@H]1C2 was > 7.00

Lab note: measured pKi of NC(=O)[C@@H]1[C@H](Nc2nc(Nc3cnn(CC4CCO4)c3)ncc2Cl)[C@H]2C=C[C@@H]1C2 (some centres unmarked) was > 7.00

Lab note: measured pKi of CNC(=O)[C@@H]1[C@H](Nc2nc(Nc3cnn(C)c3)ncc2F)[C@H]2C=C[C@@H]1C2.CNC(=O)[C@H]1[C@@H](Nc2nc(Nc3cnn(C)c3)ncc2F)[C@@H]2C=C[C@H]1C2 (mixture of isomers) was > 7.00

Lab note: measured pKi of COCCOCCn1cc(Nc2ncc(Br)c(N[C@H]3[C@@H](C(N)=O)[C@@H]4C=C[C@H]3C4)n2)cn1 was > 7.00
